Data provenance: patent US20220073643A1

target: human Claudin18.2 (human); experiment: cell-based or functional assay
A collection of binders and their measured CDC % Relative activity
Quantity Measured: CDC % Relative activity

* 411A6E3 (antibody, V domains shown) VH: DVQLVESGGGLVQPGGSRKLSCAASGFTFSDFGMHWIRQTPEKGLEWVAYISSGSRPIYYADTVKGRFTISRDNPKNTLFLQMTSLRSEDTAMYFCVRFYFGNSFDHWGQGTLVTVSA VL: DIVMTQSPSFLTVTAGEKVTMTCRSSQNLLNSGNLKNYLTWYQQKPGQPPKLLISWASTRESGVPDRFTGSGSGTDFTLTISSVQPEDLALYYCQNAYSFPLTFGAGTKLELK | 109%
* 395B3C11 (antibody, V domains shown) VH: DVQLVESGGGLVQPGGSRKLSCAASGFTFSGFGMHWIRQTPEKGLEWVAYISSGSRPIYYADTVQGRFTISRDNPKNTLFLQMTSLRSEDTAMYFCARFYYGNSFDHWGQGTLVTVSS VL: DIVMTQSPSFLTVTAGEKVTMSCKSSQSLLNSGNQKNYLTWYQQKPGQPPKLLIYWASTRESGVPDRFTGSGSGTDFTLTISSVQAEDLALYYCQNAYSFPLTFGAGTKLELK | 144%
* 418D2F9 (antibody, V domains shown) VH: DVQLVESGGGLVQPGGSRKLSCAASGFTFSSFGMHWVRQAPEKGLEWVAYINTGSSTIYYADTVKGRFTISRDNPKNTLFLQMTSLRSEDTAMYYCARIYYGNSFVYWGQGTLVTVSA VL: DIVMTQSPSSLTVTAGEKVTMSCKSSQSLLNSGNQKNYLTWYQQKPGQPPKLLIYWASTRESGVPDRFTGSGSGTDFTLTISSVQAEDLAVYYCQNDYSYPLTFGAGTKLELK | 236%
